Value source: paper PMC10397247

ASSAY TARGET: T1, P6-AA-1HGe-R
T1 chain: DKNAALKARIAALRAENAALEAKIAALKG
ASSAY OVERVIEW: two-hybrid library CCmax;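 also: natural log of median RNA to DNA barcode read ratio; higher means stronger binding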
MEASUREMENT CONDITIONS: mean of both orientations
Recorded measurements of interaction score, one per entry
Give the value as a plain number.

DENAALEAHIAALHAKNAALKAEIAALEG [P5-AA-1HGe-H]
1.63
DENAALEAQIAALQAKNAALKAEIAALEG [P5-AA-1HGe-Q]
2.05

Looking for the measured interaction score of DENAALEAMIAALMAKNAALKAEIAALEG [P5-AA-1HGe-M] , can you help?
1.93

Value lookup for interaction score; key = DENAALEATIAALTAKNAALKAEIAALEG [P5-AA-1HGe-T]
2.02

What interaction score value was documented for this binder, DENAALEAWIAALWAKNAALKAEIAALEG [P5-AA-1HGe-W] ?
1.42

Look up interaction score: DENAALEARIAALRAKNAALKAEIAALEG [P5-AA-1HGe-R]
1.45

Would you mind telling me what interaction score value was observed for DENAALEADIAALDAKNAALKAEIAALEG [P5-AA-1HGe-D] ?
1.62
